Where a name gives a salt, the structure may show the parent alone.
As shown below, each of these compounds has a reported melting point value.

Some solved cases for reference:
CN1CCC(c2ccccc2)c2ccc(C(C)(C)O)cc2C1 (single isomer, unassigned; (+)) (as salt: tartrate) [Example 18]; 103 to 105 °C
CC(C)N1CCC(c2ccccc2)c2ccc(N3CCOCC3)cc2C1 (single isomer, unassigned; (-)) (as salt: maleate) [Example 58 (−)]; 195 to 197 °C
CN1CCC(c2ccc3ccccc3c2)c2ccc(-c3cccnn3)cc2C1 (single isomer, unassigned; (+)) (as salt: maleate) [Example 50]; 99 to 102 °C
Cc1nc(-c2ccc3c(c2)CN(C)CCC3c2ccccc2)no1 (single isomer, unassigned; (+)) (as salt: tartrate) [Example 33]; 102 to 104 °C
CN1CCC(c2ccc(Cl)cc2)c2ccc(-c3cccnn3)cc2C1 (single isomer, unassigned; (+)) (as salt: hydrochloride) [Example 40]; 187 to 189 °C (dec.)
Cc1ccc(-c2ccc3c(c2)CN(C)CCC3c2cccc(F)c2)nn1 (single isomer, unassigned; (+)) (as salt: citrate) [Example 84 (+)]; 90 to 95 °C
CN1CCC(c2ccc3ccccc3c2)c2ccc(N3CCOCC3)cc2C1 (single isomer, unassigned; (+)) (as salt: maleate) [Example 51]; 110 to 112 °C
CN1CCC(c2ccc(F)cc2)c2ccc(N3CCOCC3)cc2C1 (single isomer, unassigned; (+)) (as salt: maleate) [Example 85]; 87 to 90 °C

Query block: Given CN1CCC(c2ccc(Cl)cc2)c2ccc(-c3ncccn3)cc2C1 (single isomer, unassigned; (+)) (as salt: maleate) [Example 44] , respond with its melting point.
Result block: 84 to 85 °C

Query block: Given CN1CCC(c2ccc(Cl)cc2)c2ccc(N3CCOCC3)cc2C1 (single isomer, unassigned; (+)) (as salt: maleate) [Example 48] , respond with its melting point.
Result block: 94 to 96 °C

Query block: Given CN1CCC(c2ccc(Cl)cc2)c2ccc(N3CCOCC3)cc2C1 (single isomer, unassigned; (-)) (as salt: maleate) [Example 47] , respond with its melting point.
Result block: 99 to 100 °C

Query block: Given COc1ccc2c(c1)CN(C)CCC2c1ccc(F)cc1 (single isomer, unassigned; (-)) (as salt: hydrochloride) [Example 4 (−)] , respond with its melting point.
Result block: 246 to 248 °C

---

Where a name gives a salt, the structure may show the parent alone.
As shown below, each of these compounds has a reported melting point value.

Some solved cases for reference:
CN1CCC(c2ccc3sccc3c2)c2ccc(-c3cnccn3)cc2C1.O=C(O)/C=C\C(=O)O (single isomer, unassigned; (+)); 102 to 108 °C
CN1CCC(c2ccc(F)cc2)c2ccc(O)cc2C1 (single isomer, unassigned; (-)) (as salt: hydrochloride); 159 to 161 °C
COc1ccc2c(c1)CN(C)CCC2c1cc(F)c(O)c(F)c1 (stereo not drawn) (as salt: citrate); 88 to 90 °C
COc1ccc2c(c1)CN(C)CCC2c1ccc(F)c(F)c1 (racemic) (as salt: hydrochloride); 139 to 141 °C
FCCN1CCC(c2ccccc2)c2ccc(N3CCOCC3)cc2C1 (single isomer, unassigned; (+)) (as salt: tartrate); 102 to 105 °C

Pending compound:
Query block: Given Cc1ccc(-c2ccc3c(c2)CN(C)CCC3c2cccc(F)c2)nn1 (single isomer, unassigned; (-)) (as salt: citrate) [Example 84 (−)] , respond with its melting point.
Result block: 107 to 110 °C

---

Where a name gives a salt, the structure may show the parent alone.
As shown below, each of these compounds has a reported melting point value.

Query block: Given CN1CCC(c2ccccc2)c2ccc(-c3cccnn3)cc2C1 (single isomer, unassigned; (+)) (as salt: hydrochloride) [Example 25] , respond with its melting point.
Result block: 154 to 156 °C

Query block: Given CCN1CCC(c2ccccc2)c2ccc(N3CCOCC3)cc2C1 (single isomer, unassigned; (-)) (as salt: maleate) [Example 57 (−)] , respond with its melting point.
Result block: 68 to 72 °C

Query block: Given COc1ccc2c(c1)CN(C)CCC2c1ccc(F)cc1 (racemic) (as salt: hydrochloride) [Example 3] , respond with its melting point.
Result block: 149 to 150 °C

---

Counter-ions that a name gives are not always drawn.
As shown below, each of these compounds has a reported melting point value.

Some solved cases for reference:
COc1ccc2c(c1)CN(C)CCC2c1cc(F)c(C#N)c(F)c1 (stereo not shown) (as salt: citrate); 82 to 86 °C
Cc1ccc(-c2ccc3c(c2)CN(C)CCC3c2ccc(C#N)c(F)c2)nn1 (single isomer, unassigned; (-)) (as salt: tartrate) [Example 92 (−)]; 122 to 127 °C

Query block: Given CN1CCC(c2ccc(Cl)cc2)c2ccc(-c3ccc(N(C)C)nn3)cc2C1 (single isomer, unassigned; (-)) (as salt: maleate) [Example 46] , respond with its melting point.
Result block: 109 to 110 °C

Query block: Given Cc1ccc(-c2ccc3c(c2)CN(C)CCC3c2ccccc2)nn1 (single isomer, unassigned; (+)) (as salt: hydrochloride) , respond with its melting point.
Result block: 168 to 170 °C

Query block: Given CN1CCC(c2ccccc2)c2ccc(-c3cccc(N)n3)cc2C1 (single isomer, unassigned; (+)) (as salt: maleate) , respond with its melting point.
Result block: 112 to 114 °C

---

As shown below, each of these compounds has a reported melting point value.
Where a name gives a salt, the structure may show the parent alone.

Some solved cases for reference:
CN1CCC(c2ccccc2)c2ccc(-c3ccncc3)cc2C1 (single isomer, unassigned; (+)) (as salt: maleate) [Example 31]; 91 to 93 °C
Cc1ccc(-c2ccc3c(c2)CN(C)CCC3c2ccc(Cl)cc2)nn1 (single isomer, unassigned; (+)) (as salt: hydrochloride) [Example 39]; 179 to 181 °C (dec.)

Pending compound:
Query block: Given Cc1ccc(-c2ccc3c(c2)CN(C)CCC3c2ccc(C#N)c(F)c2)nn1 (single isomer, unassigned; (+)) (as salt: tartrate) [Example 92 (+)] , respond with its melting point.
Result block: 112 to 115 °C

---

Structures can show the parent of a compound that is named as a salt.
As shown below, each of these compounds has a reported melting point value.

Cc1noc(C)c1-c1ccc2c(c1)CN(C)CCC2c1ccc(Cl)cc1 (single isomer, unassigned; (-)) (as salt: maleate) [Example 42]; 66 to 68 °C

Query block: Given CN1CCC(c2ccccc2)c2ccc(N3CCN(c4ccccn4)CC3)cc2C1 (single isomer, unassigned; (-)) (as salt: tartrate) [Example 68 (−)] , respond with its melting point.
Result block: 112 to 115 °C

Query block: Given COc1cccc2c1C(c1ccccc1)CCN(C)C2 (racemic) (as salt: fumarate) , respond with its melting point.
Result block: 154 to 156 °C

Query block: Given CN1CCC(c2ccccc2)c2ccc(-c3ccc4nccn4c3)cc2C1 (single isomer, unassigned; (+)) (as salt: tartrate) , respond with its melting point.
Result block: 142 to 144 °C

Query block: Given c1ccc(CN2CCC(c3ccccc3)c3ccc(N4CCOCC4)cc3C2)cc1 (single isomer, unassigned; (+)) (as salt: maleate) , respond with its melting point.
Result block: 108 to 110 °C

---

Structures can show the parent of a compound that is named as a salt.
As shown below, each of these compounds has a reported melting point value.

Some solved cases for reference:
CN1CCC(c2ccccc2)c2ccc(C#N)cc2C1 (stereo not drawn) (as salt: maleate); 67 to 69 °C
CN1CCC(c2ccccc2)c2ccc(-c3ncccn3)cc2C1 (single isomer, unassigned; (+)) (as salt: maleate) [Example 27]; 76 to 78 °C

Pending compound:
Query block: Given COc1ccc2c(c1)CN(C)CCC2c1ccc2sccc2c1 (single isomer, unassigned; (-)) (as salt: maleate) [Example 52 (−)] , respond with its melting point.
Result block: 92 to 95 °C
